Each recorded value in this set is attributed to PubChem BioAssay (NCI).

Test system: MDA-MB-231 breast
Procedure Text: NCI-60 one-dose screen, 48 h (100 = growth as untreated, 0 = no growth, -100 = all killed)
Settings: 10 µM
This is part of a sample that, as a whole, favours compounds with a hit. Of some 83,000 tested, about 20% had one in any assay.
# note: boundary value 60% maps to no (0); growth below it maps to yes (1)

q: In plain terms, does Cn1cc(/C=C(/SS/C(=C/c2cn(C)c3cccc(C(=O)O)c23)C(=O)O)C(=O)O)c2c(C(=O)O)cccc21 come in under 60% for growth?
a: no (0)

q: In plain terms, does COc1ccc(-n2c(SCC(=O)NNS(=O)(=O)c3ccccc3)nc3ccc(Cl)cc3c2=O)cc1 come in under 60% for growth?
a: no (0)

q: In plain terms, does C#C[C@]1(O)CC[C@H]2[C@@H]3CC=C4c5sc(Nc6cc(C)cc(C)n6)nc5CC[C@]4(C)[C@H]3CC[C@@]21C come in under 60% for growth?
a: yes (1)

q: In plain terms, does CC(C)(C)c1cc(/C=C2\S/C(=N/c3ncn[nH]3)NC2=O)cc(C(C)(C)C)c1O come in under 60% for growth?
a: yes (1)

q: In plain terms, does COc1cccc(O)c1/C=C1\SCc2cc3c(OC)cccc3[o+]c21 come in under 60% for growth?
a: no (0)

q: In plain terms, does CC1(C)CC(=O)C2=C(C1)N(Cc1ccc(C(=O)O)cc1)C1=C(C(=O)CC(C)(C)C1)C2c1ccc(Cl)cc1 come in under 60% for growth?
a: no (0)

q: In plain terms, does Nc1nnc(-c2c[nH]c3ncc(Br)cc23)c(-c2c[nH]c3ccc(Br)cc23)n1 come in under 60% for growth?
a: no (0)
